Biological target: PI3K (p110α/p85α) (Homo sapiens (Human))
Sequence (P42336 whole entry, species assumed): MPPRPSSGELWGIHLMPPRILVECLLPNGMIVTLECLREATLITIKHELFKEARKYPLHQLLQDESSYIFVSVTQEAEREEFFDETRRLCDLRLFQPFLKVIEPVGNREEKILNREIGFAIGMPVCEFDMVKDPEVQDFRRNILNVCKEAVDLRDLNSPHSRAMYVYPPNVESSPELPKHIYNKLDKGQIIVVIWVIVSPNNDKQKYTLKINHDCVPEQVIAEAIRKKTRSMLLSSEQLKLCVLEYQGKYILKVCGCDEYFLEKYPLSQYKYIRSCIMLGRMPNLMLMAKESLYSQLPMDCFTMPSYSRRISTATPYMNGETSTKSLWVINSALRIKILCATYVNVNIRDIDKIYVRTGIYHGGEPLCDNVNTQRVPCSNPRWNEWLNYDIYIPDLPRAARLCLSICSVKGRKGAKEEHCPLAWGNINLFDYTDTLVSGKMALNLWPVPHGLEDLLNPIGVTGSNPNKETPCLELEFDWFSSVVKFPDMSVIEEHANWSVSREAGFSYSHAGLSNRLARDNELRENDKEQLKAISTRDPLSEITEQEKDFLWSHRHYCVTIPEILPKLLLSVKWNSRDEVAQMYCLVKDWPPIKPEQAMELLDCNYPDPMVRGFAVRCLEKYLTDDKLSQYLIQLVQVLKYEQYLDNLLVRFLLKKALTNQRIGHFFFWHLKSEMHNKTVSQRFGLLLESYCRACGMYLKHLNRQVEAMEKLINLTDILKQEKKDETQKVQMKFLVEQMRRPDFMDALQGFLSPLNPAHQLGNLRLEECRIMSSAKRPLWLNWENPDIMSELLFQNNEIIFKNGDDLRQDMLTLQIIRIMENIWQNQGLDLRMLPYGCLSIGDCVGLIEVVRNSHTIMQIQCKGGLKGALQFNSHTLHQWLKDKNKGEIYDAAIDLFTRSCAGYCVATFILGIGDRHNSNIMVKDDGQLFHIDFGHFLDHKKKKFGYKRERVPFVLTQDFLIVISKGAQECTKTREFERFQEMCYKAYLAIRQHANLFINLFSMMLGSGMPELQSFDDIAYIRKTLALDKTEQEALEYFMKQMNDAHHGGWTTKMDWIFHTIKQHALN
Sequence (P27986 whole entry partner, species assumed): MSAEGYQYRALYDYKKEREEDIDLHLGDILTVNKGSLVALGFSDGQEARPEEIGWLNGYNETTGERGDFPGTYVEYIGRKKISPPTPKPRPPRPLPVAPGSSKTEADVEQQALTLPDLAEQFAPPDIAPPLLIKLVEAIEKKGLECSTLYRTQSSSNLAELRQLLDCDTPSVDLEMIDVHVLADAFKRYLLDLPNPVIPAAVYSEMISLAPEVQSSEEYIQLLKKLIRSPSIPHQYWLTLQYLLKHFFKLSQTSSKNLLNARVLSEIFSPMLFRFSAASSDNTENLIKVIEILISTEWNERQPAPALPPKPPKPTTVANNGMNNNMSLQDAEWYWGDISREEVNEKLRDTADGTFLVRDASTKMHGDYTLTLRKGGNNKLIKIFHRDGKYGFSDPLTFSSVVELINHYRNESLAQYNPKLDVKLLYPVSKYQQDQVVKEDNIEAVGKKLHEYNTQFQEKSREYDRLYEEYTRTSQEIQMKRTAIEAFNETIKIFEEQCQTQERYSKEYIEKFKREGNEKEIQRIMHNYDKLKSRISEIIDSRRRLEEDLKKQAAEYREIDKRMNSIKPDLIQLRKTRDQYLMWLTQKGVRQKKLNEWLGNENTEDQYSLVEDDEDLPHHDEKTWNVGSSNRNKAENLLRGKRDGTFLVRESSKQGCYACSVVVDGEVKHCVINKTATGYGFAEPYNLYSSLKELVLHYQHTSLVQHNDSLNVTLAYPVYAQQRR
Experiment: PI3K HTRF enzyme assay, p110α/p85α
Format: biochemical
Conditions: read-out: % inhibition @ 500 nM p110α; compound at 500 nM, 10 μM ATP
measuredEndpoint: inhibition at 0.5 µM (%)
Field format: number, assumed %, no unit text.

Lab book: inhibition at 0.5 µM of CSc1c(Cl)nc(-c2ccc(NC(=O)Nc3ccc(N4CCOCC4)c(F)c3)cc2)nc1N1CCOCC1 [MTR-0211] noted as 42

Lab book: inhibition at 0.5 µM of CSc1c(Cl)nc(-c2ccc(NC(=O)Nc3ccncc3)cc2)nc1N1CCOCC1 [MTR-0469] noted as 81.7

Lab book: inhibition at 0.5 µM of COc1cnc(-c2ccc(NC(=O)Nc3ccc(C(N)=O)cc3)c(F)c2)nc1N1CCOCC1 [MTR-0385] noted as 64

Lab book: inhibition at 0.5 µM of CCOc1cnc(-c2ccc(NC(=O)Nc3ccc(N4CCN(S(C)(=O)=O)CC4)cc3)cc2)nc1N1CCOCC1 [MTR-0420] noted as 58.6

###

Molecular target: recombinant mTOR (Homo sapiens (Human), UniProt P42345)
Sequence (P42345 1360-2549): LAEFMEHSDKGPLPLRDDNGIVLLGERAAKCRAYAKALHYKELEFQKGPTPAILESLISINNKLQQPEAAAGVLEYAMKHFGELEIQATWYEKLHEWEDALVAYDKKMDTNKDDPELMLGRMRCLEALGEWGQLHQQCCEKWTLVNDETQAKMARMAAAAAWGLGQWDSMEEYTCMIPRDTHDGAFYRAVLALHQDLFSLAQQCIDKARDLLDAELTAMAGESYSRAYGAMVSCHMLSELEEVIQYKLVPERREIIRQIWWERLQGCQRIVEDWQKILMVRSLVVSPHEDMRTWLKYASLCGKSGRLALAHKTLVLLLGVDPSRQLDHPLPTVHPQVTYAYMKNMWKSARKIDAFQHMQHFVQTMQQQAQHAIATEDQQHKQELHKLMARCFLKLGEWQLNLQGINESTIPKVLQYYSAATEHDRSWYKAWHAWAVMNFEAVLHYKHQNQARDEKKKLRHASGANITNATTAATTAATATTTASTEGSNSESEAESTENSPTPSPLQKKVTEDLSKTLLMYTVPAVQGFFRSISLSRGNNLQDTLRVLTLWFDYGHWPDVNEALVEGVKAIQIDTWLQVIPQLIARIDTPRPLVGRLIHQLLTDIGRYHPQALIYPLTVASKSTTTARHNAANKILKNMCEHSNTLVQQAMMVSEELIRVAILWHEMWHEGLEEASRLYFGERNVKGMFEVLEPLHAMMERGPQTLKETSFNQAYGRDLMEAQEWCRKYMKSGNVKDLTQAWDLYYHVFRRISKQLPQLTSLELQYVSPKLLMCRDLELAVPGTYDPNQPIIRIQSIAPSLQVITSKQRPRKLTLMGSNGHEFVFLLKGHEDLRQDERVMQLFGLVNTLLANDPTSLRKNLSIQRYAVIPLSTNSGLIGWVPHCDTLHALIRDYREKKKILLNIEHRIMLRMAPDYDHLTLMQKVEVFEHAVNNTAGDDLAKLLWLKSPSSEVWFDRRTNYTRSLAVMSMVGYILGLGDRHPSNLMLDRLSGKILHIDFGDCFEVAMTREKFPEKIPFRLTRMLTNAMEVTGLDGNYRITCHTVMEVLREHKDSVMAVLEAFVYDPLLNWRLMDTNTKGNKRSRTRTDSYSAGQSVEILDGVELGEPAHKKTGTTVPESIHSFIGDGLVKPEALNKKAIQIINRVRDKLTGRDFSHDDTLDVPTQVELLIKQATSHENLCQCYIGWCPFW
Experiment: mTOR kinase assay (33P incorporation into 4EBP1)
Format: biochemical
Details: compound at 10 μM, 10 μM ATP
# inhibition at 10 µM >= 90% gives Satisfied, anything below gives Not satisfied

Req: Check if inhibition at 10 µM >= 90% (inclusive). Item: `CSc1c(Cl)nc(-c2ccc(NC(=O)Nc3ccc(N4CCOCC4)nc3)cc2)nc1N1CCOCC1`
Resp: Not satisfied

Req: Check if inhibition at 10 µM >= 90% (inclusive). Item: `CSc1cnc(-c2ccc(NC(N)=O)cc2)nc1N1CCOCC1`
Resp: Satisfied

Req: Check if inhibition at 10 µM >= 90% (inclusive). Item: `CCOc1c(-c2cccnc2)nc(-c2ccc(NC(=O)Nc3ccc(N4CCOCC4=O)cc3)cc2)nc1N1CCOCC1`
Resp: Satisfied

Req: Check if inhibition at 10 µM >= 90% (inclusive). Item: `CSc1c(Cl)nc(-c2ccc(NC(=O)Nc3ccc(N4CCOCC4=O)cc3)cc2)nc1N1CCOCC1`
Resp: Not satisfied

Req: Check if inhibition at 10 µM >= 90% (inclusive). Item: `CCOC(=O)c1nc(-c2ccc(NC(=O)Nc3cccc(F)c3)cc2)nc(N2CCOCC2)c1OCC`
Resp: Satisfied

Req: Check if inhibition at 10 µM >= 90% (inclusive). Item: `CCOc1c(CN2CCN(S(C)(=O)=O)CC2)nc(-c2ccc(NC(=O)Nc3ccccc3)cc2)nc1N1CCOCC1`
Resp: Satisfied

Req: Check if inhibition at 10 µM >= 90% (inclusive). Item: `CCOC(=O)c1nc(-c2ccc(NC(=O)Nc3ccc4[nH]c(=O)oc4c3)cc2)nc(N2CCOCC2)c1OCC`
Resp: Satisfied

Req: Check if inhibition at 10 µM >= 90% (inclusive). Item: `CCOc1c(C(N)=O)nc(-c2ccc(NC(=O)Nc3ccccc3)cc2)nc1N1CCOCC1`
Resp: Satisfied
